target: monkey NPR1 (Macaca fascicularis, UniProt A0A7N9DBT9); assay: Cellular cGMP production assay, monkey NPR1 expressing CHO-K1 cells (CisBio HTRF); format: cell-based; conditions: cGMP production, monkey NPR1 CHO-K1 cells, 30 min at 37° C., 12-point dose-response from 30 μM; read-out: Monkey NPR1 AC50
Sequence (A0A7N9DBT9 entry or part of it): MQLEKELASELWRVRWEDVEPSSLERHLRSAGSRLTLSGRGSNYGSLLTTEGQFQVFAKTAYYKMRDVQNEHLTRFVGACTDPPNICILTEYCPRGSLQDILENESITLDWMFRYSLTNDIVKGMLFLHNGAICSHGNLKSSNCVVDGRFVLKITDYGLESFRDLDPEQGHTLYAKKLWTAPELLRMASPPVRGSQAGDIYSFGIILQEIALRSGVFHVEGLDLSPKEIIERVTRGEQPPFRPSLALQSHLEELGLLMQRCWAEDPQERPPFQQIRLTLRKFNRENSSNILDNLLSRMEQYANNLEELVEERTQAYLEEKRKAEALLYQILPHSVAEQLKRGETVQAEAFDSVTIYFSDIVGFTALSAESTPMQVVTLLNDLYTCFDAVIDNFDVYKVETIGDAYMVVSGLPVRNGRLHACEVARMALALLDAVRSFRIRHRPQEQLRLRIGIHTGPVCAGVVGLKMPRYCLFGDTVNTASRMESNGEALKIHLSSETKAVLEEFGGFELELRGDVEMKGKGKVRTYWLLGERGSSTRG
Value Kind: AC50 (nM)

1) CC[C@@H](N(C)c1nc2c(c(N[C@@H](CN3CCC[C@H](C)C3)c3ccnn3C)n1)C[C@H](c1cccc(F)c1)CC2)C12CC(C(=O)O)(C1)C2
648
2) CC[C@H]([C@H]1CC[C@H](C(=O)O)CC1)N(C)c1nc2c(c(N[C@@H](CN3CCCCC3)c3cnn(CC)c3)n1)C[C@@H](c1cccc(F)c1)CC2
471
3) CC[C@H]([C@H]1CC[C@H](C(=O)O)CC1)N(C)c1nc2c(c(N[C@@H](CN3CCC[C@H](OC)C3)c3cnn(C)c3)n1)C[C@H](c1ccccc1)CC2
684
4) CC[C@H]([C@H]1CC[C@H](C(=O)O)CC1)N(C)c1nc2c(c(N[C@@H](CN3CCC[C@H](C(F)F)C3)c3cnn(C)c3)n1)C[C@H](c1cccc(F)c1)CC2
174

---

Target: human NPR1 (Homo sapiens)
Construct: host or cells: CHO-K1
Sequence (P16066 33-1061): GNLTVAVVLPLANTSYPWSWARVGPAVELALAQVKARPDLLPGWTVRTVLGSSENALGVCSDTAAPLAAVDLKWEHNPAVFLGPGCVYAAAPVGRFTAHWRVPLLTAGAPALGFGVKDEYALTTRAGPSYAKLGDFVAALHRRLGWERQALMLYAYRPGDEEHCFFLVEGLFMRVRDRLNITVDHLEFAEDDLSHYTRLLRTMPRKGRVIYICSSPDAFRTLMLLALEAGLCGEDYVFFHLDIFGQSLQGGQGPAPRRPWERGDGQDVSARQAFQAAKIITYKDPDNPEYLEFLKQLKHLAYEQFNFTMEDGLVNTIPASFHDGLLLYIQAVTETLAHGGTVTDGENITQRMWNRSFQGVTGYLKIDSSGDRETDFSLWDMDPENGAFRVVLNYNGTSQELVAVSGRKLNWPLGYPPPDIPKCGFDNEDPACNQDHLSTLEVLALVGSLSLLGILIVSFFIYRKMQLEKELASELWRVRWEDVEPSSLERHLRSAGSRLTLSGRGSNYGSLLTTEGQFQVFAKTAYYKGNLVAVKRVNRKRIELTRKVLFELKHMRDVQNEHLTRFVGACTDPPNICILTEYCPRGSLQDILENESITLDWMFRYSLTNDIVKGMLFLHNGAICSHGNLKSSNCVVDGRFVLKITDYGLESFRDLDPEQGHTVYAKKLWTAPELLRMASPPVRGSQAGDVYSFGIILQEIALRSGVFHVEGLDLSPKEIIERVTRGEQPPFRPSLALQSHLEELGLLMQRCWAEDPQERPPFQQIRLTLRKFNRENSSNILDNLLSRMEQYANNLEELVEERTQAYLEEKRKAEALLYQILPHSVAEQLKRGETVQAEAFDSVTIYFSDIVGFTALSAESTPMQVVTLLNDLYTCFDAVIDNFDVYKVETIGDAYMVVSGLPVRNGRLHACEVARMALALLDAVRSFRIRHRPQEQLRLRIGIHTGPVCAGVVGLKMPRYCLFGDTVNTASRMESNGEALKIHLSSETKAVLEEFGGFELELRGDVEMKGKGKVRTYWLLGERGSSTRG
Test: Cellular cGMP production assay, human NPR1 expressing CHO-K1 cells (CisBio HTRF)
Format: cell-based
Settings: cGMP production, 30 min at 37° C., 12-point dose-response from 30 μM
Method: Cellular cGMP is a major second messenger that mediates cell activities and is synthesized by activated NPR1 triggered by binding of the natural ligand ANP. […] The assay was performed according to manufacturer's instructions with minor deviations. […] The readout was performed using an Envision plate reader (PerkinElmer) with an excitation wavelength of 317 nm and an emission wavelength of 665 nm. cGMP concentration (Delta F [° %]) was calculated according to the following formulae: […]
# thresholds on AC50 define classes: group A (below 200 nM), group B (200 nM to below 400 nM), group C (400 nM or more)

1) CC[C@@H](Nc1nc2c(c(N[C@@H](CN3C4CCCC3CCC4)c3cnn(CC)c3)n1)C[C@H](c1ccccc1)CC2)[C@H]1CC[C@H](C(=O)O)CC1 [Compound 65]
group B
2) CC[C@H]([C@H]1CC[C@H](C(=O)O)CC1)N(C)c1nc2c(c(N[C@@H](CN3CCC[C@H](C)C3)c3cnn(C)c3)n1)CN(c1ccc(F)cc1)CC2 [Compound 110]
group C
3) CC[C@H]([C@H]1CC[C@H](C(=O)O)CC1)N(C)c1nc2c(c(N[C@@H](CN3C4CCCC3CC(O)C4)c3cnn(CC)c3)n1)C[C@H](c1cccc(F)c1)CC2 (stereo partly drawn) [Compound 79]
group B
4) CC[C@H]([C@H]1CC[C@H](C(=O)O)CC1)N(C)c1nc2c(c(N[C@@H](CN3C[C@@H](C)C[C@H](OC)C3)c3cnn(C)c3)n1)C[C@H](c1ccccc1)CC2 [Compound 184]
group C
5) CC[C@@H](Nc1nc2c(c(N[C@@H](CN3CCCC(CF)C3)c3cnn(C)c3)n1)C[C@H](c1cccc(F)c1)CC2)[C@H]1CC[C@H](C(=O)O)CC1 (stereo partly drawn) [Compound 175]
group A
6) CC[C@@H](Nc1nc2c(c(N[C@@H](CN3CCCC4(CCC4)C3)c3cnn(CC)c3)n1)C[C@H](c1ccccc1)CC2)[C@H]1CC[C@H](C(=O)O)CC1 [Compound 126]
group C
7) CC[C@H]([C@H]1CC[C@H](C(=O)O)CC1)N(C)c1nc2c(c(N[C@@H](CN3CCC[C@H](C)C3)c3cnn(C)c3)n1)C[C@H](c1ccccc1)CC2 [Compound 40]
group A
8) CC[C@H]([C@H]1CC[C@H](C(=O)O)CC1)N(C)c1nc2c(c(N[C@@H](CN3C4CCCC3CCC4)c3cnn(CC)c3)n1)C[C@@H](c1cccc(F)c1)CC2 [Compound 52]
group A
9) CC[C@H]([C@H]1CC[C@H](C(=O)O)CC1)N(C)c1nc2c(c(N[C@@H](CN3CCC[C@@H](C)C3)c3cnn(C)c3)n1)C[C@H](c1ccccc1)CC2 [Compound 125]
group C
10) CC[C@H]([C@H]1CC[C@H](C(=O)O)CC1)N(C)c1nc2c(c(N[C@@H](CN3CCC[C@H](C)C3)c3ccc(=O)n(C)c3)n1)C[C@H](c1cccc(F)c1)CC2 [Compound 53]
group A
11) CC[C@@H](N(C)c1nc2c(c(N[C@@H](CN3CCC[C@H](C)C3)c3cnn(C)c3C)n1)C[C@H](c1cccc(F)c1)CC2)C12CC(C(=O)O)(C1)C2 [Compound 46]
group A
12) CC[C@H](N(C)c1nc2c(c(N[C@@H](CN3CCC[C@H](CF)C3)c3cnn(C)c3)n1)C[C@](C)(c1ccccc1)CC2)C12CC(C(=O)O)(C1)C2 [Compound 43]
group A
13) CC[C@@H](Nc1nc2c(c(N[C@@H](CNC3CCOCC3)c3ccccc3)n1)C[C@H](c1ccccc1)CC2)[C@H]1CC[C@H](C(=O)O)CC1 [Compound 166]
group C
14) CC[C@H](N(C)c1nc2c(c(N[C@@H](CN3C4CCCC3CC4)c3cnn(C)c3)n1)C[C@](C)(c1ccccc1)CC2)C12CC(C(=O)O)(C1)C2 [Compound 69]
group B
